Ki ratio reference
Target: Adrenergic receptors; alpha-1 A & B (Homo sapiens) (UniProt P35348+P35368)
Assay: Relative binding affinity for alpha-1b and alpha-1a adrenergic receptors
Format: protein assay
assayEndpoint: Ki ratio

>>> endpointvalue("O=C1CCCCCN1Cc1cc(CN2CCN(c3ccccc3Oc3ccccc3)CC2)on1")
"> 58"
>>> endpointvalue("CC(C)Oc1ccccc1N1CCN(Cc2cc(CN3CCCC3=O)no2)CC1")
2720
>>> endpointvalue("CC(C)Oc1ccccc1N1CCN(Cc2nc(CN3CCCCCC3=O)co2)CC1")
"> 1.4"

###

pKi: −log10 of the molar value.
List of pKi tested on Alpha-1A adrenergic receptor (Homo sapiens, UniProt P35348).
Sequence (P35348 whole entry): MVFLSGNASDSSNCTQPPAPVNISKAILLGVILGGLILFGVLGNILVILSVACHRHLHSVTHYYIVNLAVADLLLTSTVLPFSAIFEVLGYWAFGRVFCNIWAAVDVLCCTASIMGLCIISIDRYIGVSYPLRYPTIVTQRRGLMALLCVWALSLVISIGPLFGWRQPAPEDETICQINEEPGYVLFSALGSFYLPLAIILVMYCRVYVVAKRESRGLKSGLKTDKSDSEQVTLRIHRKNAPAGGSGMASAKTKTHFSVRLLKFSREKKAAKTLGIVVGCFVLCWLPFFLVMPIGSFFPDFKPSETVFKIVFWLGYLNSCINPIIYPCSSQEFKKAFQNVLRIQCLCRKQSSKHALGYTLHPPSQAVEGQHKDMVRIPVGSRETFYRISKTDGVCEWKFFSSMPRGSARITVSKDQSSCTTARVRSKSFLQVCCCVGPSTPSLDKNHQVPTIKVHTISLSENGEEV
assayEndpoint: pKi

>>> endpointvalue("CC(C)Oc1ccccc1N1CCN(Cc2nc(CN3CCCCCC3=O)co2)CC1")
5.46
>>> endpointvalue("CC(C)Oc1ccccc1N1CCN(Cc2cc(CN3CCCCC3=O)no2)CC1")
8.08
>>> endpointvalue("CC(C)Oc1ccccc1N1CCN(Cc2nc(CN3C(=O)CC4(CCCC4)CC3=O)co2)CC1")
7.09
>>> endpointvalue("O=C1CCCCN1Cc1cc(CN2CCN(c3ccccc3Oc3ccccc3)CC2)on1")
7.82
>>> endpointvalue("CC(C)Oc1ccccc1N1CCN(Cc2cc(CN3CCCC3=O)no2)CC1")
8.96
